System: MDA-MB-468 breast
Experiment: NCI tumour cell line growth inhibition, 48 h; in the data active = GI50 below about 0.43 µM; inactive = the rest
// classify into active, inactive

Use these answered entries as a reference point.
compound=COc1ccc2c(c1OC)CO[C@@H]2[C@H]1c2c(cc3c(c2OC)OCO3)CCN1S(=O)(=O)c1cn(C)cn1 cat=active
compound=COc1ncc(Nc2ncc([C@@H](C)N3CCN(S(C)(=O)=O)CC3)cc2-c2nc(C)nc(N)n2)cc1F cat=active
compound="CC1=C(c2ccccc2)C(O)(c2ccccc2)C(C)C1=O (stereo not given)" cat=inactive
compound="CC(N)(Cc1c[nH]c2cccc(F)c12)C(=O)O (stereo not given)" cat=inactive
compound=COCc1c(-c2cc3cc(C)cc(OC)c3s2)c2c(N)ncnn2c1CN1CCNC(=O)C1 cat=inactive
compound=COc1cccc(CC(C)=C(c2ccc(OCCN3CCCCC3)cc2)c2ccc(OCCN3CCCCC3)cc2)c1 cat=inactive
compound=COc1ccc2c(c1)[nH]c(=O)c1c3cccc(F)c3cn21 cat=active
compound="CCOC(=O)Oc1cc2c(c(OC)c1OC)-c1ccc(OC)c(=O)cc1C(NC(C)=O)CC2 (stereo not given)" cat=active
compound=CCc1ccc(CCC(=O)Nc2ncc(Cc3ccc(Cl)cc3)s2)o1 cat=active
compound=COc1ccc(CN2c3ccccc3Sc3ccccc32)c(C(F)(F)F)c1 cat=active

Switching to the query record.
Q: Name the outcome recorded for COc1cc(/C=N/Nc2ncnc3c2cnn3-c2ccccc2)ccc1O in the assay.
Result: inactive

###

Reported TGI values for the following compounds.
Tested on: MDA-MB-468 breast
Experiment: NCI tumour cell line growth inhibition, 48 h
Write the value in nM as a bare number.

Worked cases, TGI given:
compound="CC1=C(SCCC(=O)OC(C[Se]C2=C(C)C(=O)c3ccccc3C2=O)C(=O)NCCCCCC(=O)OCc2ccccc2)C(=O)c2ccccc2C1=O (centres undefined)" measured_attribute=TGI experimental_result=8540
compound="CCC(C)[C@H](NC(=O)Nc1cc(C(F)(F)F)cc(C(F)(F)F)c1)C(=O)N[C@@H](Cc1cn(C)cn1)C(=O)OC (some centres undefined)" measured_attribute=TGI experimental_result=971

Q: Given CNC(=O)c1c(NC(=O)c2ccc(C(C)(C)C)cc2)sc2c(CN(C)C)c(O)ccc12 , state its recorded TGI.
Result: 3360

Q: Given CNC(=O)c1c(NC(=O)c2ccc(C(C)(C)C)cc2)sc2c1CCC(=O)C2 , state its recorded TGI.
Result: 2070

###

Test system: MDA-MB-468 breast
Assay: NCI tumour cell line growth inhibition, 48 h
Lab note: anything with TGI at or over 6 µM counts as class 1; the rest go in class 0.

Use these answered entries as a reference point.
molecule=COc1cc(Nc2ncc(-c3ccccc3)o2)cc(OC)c1 cat="class 1"
molecule=NCCCC[C@@H]1NC(=O)[C@H](CC(=O)O)NC(=O)CNC(=O)[C@H](CCCN=C(N)N)NC(=O)[C@@H](N)CSSC[C@@H](C(=O)O)NC(=O)[C@H](CC(=O)O)NC(=O)[C@@H]2CCCN2C(=O)CNC1=O cat="class 1"
molecule="CC1=C(c2ccccc2)C(O)(c2ccccc2)C(C)C1=O (stereo not drawn)" cat="class 1"
molecule=COc1ncc(Nc2ncc([C@@H](C)N3CCN(S(C)(=O)=O)CC3)cc2-c2nc(C)nc(N)n2)cc1F cat="class 0"
molecule="CC(N)(Cc1c[nH]c2cccc(F)c12)C(=O)O (stereo not drawn)" cat="class 1"

Q: I'd appreciate it if you could say whether COc1cc(OC)cc(-c2n/c(=C\c3c(O)[nH]c4ccc(OC)cc34)cc3c2=Nc2ccccc2-3)c1 has TGI at least equal to 6 µM.
Result: class 1

Q: In plain terms: is recorded TGI at least 6 µM for CCCCCCCCCCCCCCCCCCn1cc[n+](C)c1 ?
Result: class 0

Q: Does TGI meet or surpass 6 µM for C=C1CCC2C3(C)COC(c4cccc(F)c4)OC3CCC2(C)C1C/C=C1/C(=O)OCC1O (stereo not drawn) ?
Result: class 1

###

Tested on: MDA-MB-468 breast
Assay: NCI tumour cell line growth inhibition, 48 h; in the data active means GI50 below about 0.43 µM; inactive means the rest
Your answer must be one of the following: yes for active, no for inactive

Would you please look over these solved cases?
compound=CNC(=O)c1c(NC(=O)c2ccc(C(C)(C)C)cc2)sc2c1CCC(=O)C2 cat=yes
compound="CC1=C2[C@@H](CC1)[C@]1(C)O[C@@](C(C)C)(C[C@H]1OC(=O)CO)[C@H]2OC(=O)C1CC1c1ccccc1 (some centres undefined)" cat=no
compound=COc1ccc2c(c1)c(-c1nc(-c3c[nH]c4ccncc34)cs1)cn2C cat=no

Q: # fetch the recorded call for CC1=C(SCCC(=O)OC(C[Se]C2=C(C)C(=O)c3ccccc3C2=O)C(=O)NCCCCCC(=O)OCc2ccccc2)C(=O)c2ccccc2C1=O (centres undefined) here
Result: no
